Target: Cin5 (UniProt P40917)
Sequence: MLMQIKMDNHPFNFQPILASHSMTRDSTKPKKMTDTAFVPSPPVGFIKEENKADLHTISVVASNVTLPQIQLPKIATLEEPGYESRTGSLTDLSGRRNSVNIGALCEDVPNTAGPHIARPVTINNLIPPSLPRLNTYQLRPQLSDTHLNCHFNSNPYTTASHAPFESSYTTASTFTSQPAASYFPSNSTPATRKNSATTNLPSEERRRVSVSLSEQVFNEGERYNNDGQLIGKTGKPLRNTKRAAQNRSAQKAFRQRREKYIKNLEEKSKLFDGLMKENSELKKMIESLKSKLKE
Assay: PBM E-score (8-mer binding enrichment) (E-score (-0.5 to 0.5)); higher = stronger / more preferred TF binding
Conditions: protein concentration: 100 nM; construct: GST-full length
Over roughly 33,000 sequences, “E-score (-0.5 to 0.5)” has its median near -0.0059; the highest 2% begin near 0.26. The list comes from a sample in which the highest values are over-represented; it also holds close analogues and randomly drawn sequences.
experimental-readout: PBM E-score
Give the value as a plain number.

Considering `AGAGCTTG` , its PBM E-score with Cin5 (UniProt P40917) was recorded as -0.0623

Considering `CAGCGCAA` , its PBM E-score with Cin5 (UniProt P40917) was recorded as 0.0372

Considering `CTGATGAA` , its PBM E-score with Cin5 (UniProt P40917) was recorded as 0.0259

Considering `ACAGTAGG` , its PBM E-score with Cin5 (UniProt P40917) was recorded as -0.00703

Considering `GGCTGCAA` , its PBM E-score with Cin5 (UniProt P40917) was recorded as -0.0216

Considering `CGTCTGAA` , its PBM E-score with Cin5 (UniProt P40917) was recorded as -0.133

Considering `GAAATGTA` , its PBM E-score with Cin5 (UniProt P40917) was recorded as 0.143

Considering `CATCCCAA` , its PBM E-score with Cin5 (UniProt P40917) was recorded as 0.0478

Considering `GTGATGAA` , its PBM E-score with Cin5 (UniProt P40917) was recorded as 0.0186

Considering `GGGGTGTA` , its PBM E-score with Cin5 (UniProt P40917) was recorded as -0.208

Considering `CAAATGTA` , its PBM E-score with Cin5 (UniProt P40917) was recorded as 0.268
